method_summary: intrinsic fluorescence of library compounds, ex339/em460 – biochemical, MLSMR library, data from DPM-DC assay, artefact control, profiling panel (AID 709);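 note: signal is the first read of a kinetic run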
test_settings: compound autofluorescence, ex339/em460 nm, NADH buffer; at 10 µM; 1 = no-compound wells, NADH background
In all, about 65,000 compounds went through this assay and about 3,600 (5.5%) were called active.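 Rule for the calls: active = at 10 µM, mean starting fluorescence two-fold or more over control wells; inactive = the rest.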 The full list was thinned out, with actives kept by preference.
Output constraint: value belongs to T = active, F = inactive

Look over these answered cases.
O=C(CSC1=Nc2ccccc2C2=NC(c3ccccc3)C(=O)N12)NCC1CCCO1 (stereo unspecified): T
CCn1nc(NC(=O)c2ccco2)c2cc3ccc(C)cc3nc21: T
COc1ccccc1N1CCN(C(=O)c2cn(-c3ccccc3)nc2-c2cccnc2)CC1: F

Hi team, can someone confirm the assay call for O=C(CSc1nnc(-c2ccc(NS(=O)(=O)c3ccccc3)cc2)o1)NCC1CCCO1 (stereo unspecified) ?
F

Hi team, can someone confirm the assay call for C=CCc1cccc2cc(C(=O)OCC)c(=O)oc12 ?
F

Hi team, can someone confirm the assay call for O=C(Nc1ccncc1)c1c(F)cccc1F ?
F

====

method_summary: intrinsic fluorescence of library compounds, ex339/em460 – biochemical, MLSMR library, data from DPM-DC assay, artefact control, profiling panel (AID 709);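 note: signal is the first read of a kinetic run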
test_settings: compound autofluorescence, ex339/em460 nm, NADH buffer; at 10 µM; 1 = no-compound wells, NADH background
The campaign covered roughly 65,000 compounds. About 3,600 (5.5%) were called active.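 Rule for the calls: active = at 10 µM, mean starting fluorescence two-fold or more over control wells; inactive = the rest.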 This excerpt belongs to a sample that is enriched for actives.
Output constraint: value belongs to 1 (yes) = active, 0 (no) = inactive

CC1Cc2cc(/C(O)=C3\C(=O)C(=O)N(CCN4CCOCC4)C3c3ccccc3F)ccc2O1 (stereo unspecified): 0 (no)
Cc1cccc2cc(CN(Cc3nnnn3Cc3ccccc3)C3CCCC3)c(=O)[nH]c12: 0 (no)

Hi team, can someone confirm the assay call for Cc1cc2cc(CN(Cc3cccs3)Cc3nnnn3CC3CCCO3)c(=O)[nH]c2cc1C (stereo unspecified) ?
0 (no)

Hi team, can someone confirm the assay call for COC(=O)c1ccc(OC(=O)c2nn(C)cc2Cl)c(OC)c1 ?
0 (no)

Hi team, can someone confirm the assay call for COc1ccc2[nH]c(=O)c(CN(CC3CCCO3)C(=O)Nc3ccccc3)cc2c1 (stereo unspecified) ?
1 (yes)

Hi team, can someone confirm the assay call for Cc1ccc(C(c2nnnn2CS(=O)(=O)c2ccc(C)cc2)N2CCC(C(N)=O)CC2)cc1 (stereo unspecified) ?
0 (no)

Hi team, can someone confirm the assay call for CCCNc1ncnc2sc(C)c(C)c12 ?
0 (no)

Hi team, can someone confirm the assay call for COc1cc(C2C(C(=O)c3ccc(C)o3)=C(O)C(=O)N2Cc2cccnc2)ccc1O (stereo unspecified) ?
0 (no)

Hi team, can someone confirm the assay call for COc1ccc(S(=O)(=O)Nc2ccc3c(c2)OCO3)cc1Cl ?
0 (no)

Hi team, can someone confirm the assay call for COc1ccc2[nH]c(=O)c(CN(Cc3nnnn3CCc3ccccc3)CC3CCCO3)cc2c1 (stereo unspecified) ?
1 (yes)

Hi team, can someone confirm the assay call for COc1ccc(C2CC(=O)C=C(NCC3CCCO3)C2)cc1 (stereo unspecified) ?
0 (no)
